Origin of the recorded values: PubChem BioAssay AID1671192

# Assay target: Polyunsaturated fatty acid lipoxygenase ALOX15 (Homo sapiens) (UniProt P16050)
# Sequence (P16050 whole entry, looked up): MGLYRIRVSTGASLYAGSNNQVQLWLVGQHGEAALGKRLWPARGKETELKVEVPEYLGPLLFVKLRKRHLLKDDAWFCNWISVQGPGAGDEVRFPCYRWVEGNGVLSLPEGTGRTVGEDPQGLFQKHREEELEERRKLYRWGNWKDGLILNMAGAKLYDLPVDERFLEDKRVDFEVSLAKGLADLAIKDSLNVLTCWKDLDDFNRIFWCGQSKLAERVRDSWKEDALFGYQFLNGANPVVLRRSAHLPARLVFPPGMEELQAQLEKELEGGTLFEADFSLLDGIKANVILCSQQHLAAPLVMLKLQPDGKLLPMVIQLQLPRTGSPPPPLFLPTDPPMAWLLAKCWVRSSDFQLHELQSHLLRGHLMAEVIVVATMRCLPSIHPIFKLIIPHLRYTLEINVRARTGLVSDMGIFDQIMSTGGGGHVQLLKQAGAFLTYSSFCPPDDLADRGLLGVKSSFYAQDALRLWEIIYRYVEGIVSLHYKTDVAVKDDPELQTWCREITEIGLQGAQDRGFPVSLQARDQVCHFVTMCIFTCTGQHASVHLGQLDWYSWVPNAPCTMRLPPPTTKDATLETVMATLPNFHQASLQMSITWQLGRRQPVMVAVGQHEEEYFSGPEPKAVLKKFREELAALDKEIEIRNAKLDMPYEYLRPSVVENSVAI
# Assay explanation: Counterscreen qHTS for inhibitors of human arachidonate 12S-lipoxygenase (ALOX12): ALOX15 Assay
# Stated conditions: purified ALOX15 enzyme activity; series mostly up to 110 µM
Records with an inconclusive call do not appear. The source made the active and inactive calls. The call rests on the fitted dose curve; in most records, active means well fitted curve in the direction sought with a large enough effect; inconclusive means small, poorly fitted or top-dose-only effect, or another doubt; inactive means no such curve, though single readings can be large or run the other way.
Observation type: outcome

Example results:
# Compound, Recorded measurement
records = [
    ("COc1ccc(CNc2ncnc3c2CN(C2CCCNC2)C(=O)CN3C)cc1 (stereo unspecified)", "inactive"),
    ("O=C1NCc2ccccc2CC12CCN(Cc1ccc(Cl)cc1)CC2", "inactive"),
    ("O=C1NCc2ccccc2CC12CCN(Cc1ccc(Cl)s1)C2 (stereo unspecified)", "inactive"),
    ("O=C(c1cn2c(n1)CN([S+](=O)([O-])c1cccc(C(F)(F)F)c1)CC2)N1CCOCC1", "inactive"),
    ("CN1CC(=O)N(C2CCNC2)Cc2c(NC3CCN(Cc4ccccc4)CC3)ncnc21 (stereo unspecified)", "inactive"),
    ("O=C1NCc2ccccc2CC12CCN(Cc1ccc(F)cc1F)CC2", "inactive"),
]

// query outcome value for entry Nc1ccccc1CN1CCCC2(Cc3ccccc3CNC2=O)C1 (stereo unspecified)
inactive

// query outcome value for entry Cc1ccc(-c2ccc(C=O)cc2)cc1Cl
inactive

// query outcome value for entry CN1CC(=O)N(C2CCCNCC2)Cc2c(NCc3ccc4c(c3)OCO4)ncnc21 (stereo unspecified)
inactive

// query outcome value for entry O=C1NCc2ccccc2CC12CCCN2Cc1cccc(O)c1 (stereo unspecified)
inactive

// query outcome value for entry O=C(N1CCOCC1)N1CCC(c2nnc3n2CCNC3)CC1
inactive

// query outcome value for entry COc1ccc(C(=O)N2CC(Oc3ccc4c(c3)OCO4)C2)cc1
inactive

// query outcome value for entry CN1CC(=O)N(C2CCCNCC2)Cc2c1ncnc2N1CCCC(CO)C1 (stereo unspecified)
inactive

// query outcome value for entry O=C(c1cc(C2CC2)nc2onc(C3CCNCC3)c12)N1CCCCC1
inactive
